Reported ΔTm is given for each of the following molecules.
species on record: Homo sapiens; test: Stabilization of human telomeric G-quadruplex DNA sequence 5'-FAM-d(GGG[TTAGGG]3)-TAMRA-3' assessed as melting temperature at 1 uM by FRET assay

Mol	ΔTm, °C
CN1CCN(CCCNc2cc3c4c(c(NCCCN5CCN(C)CC5)cc5c4c2C(=O)N(CC2CCOCC2)C5=O)C(=O)N(CC2CCOCC2)C3=O)CC1	0.1
CN1CCN(CCCNc2cc3c4c(c(NCCCN5CCN(C)CC5)cc5c4c2C(=O)N(CCN2CCOCC2)C5=O)C(=O)N(CCN2CCOCC2)C3=O)CC1	27
CN1CCN(CCNc2cc3c4c(c(NCCN5CCN(C)CC5)cc5c4c2C(=O)N(CCN2CCOCC2)C5=O)C(=O)N(CCN2CCOCC2)C3=O)CC1	24.7
